Measured pIC50, listed per entry.
- test_system: WRN [UniPro: Q14191 (WRN_HUMAN), N500-C946] (Homo sapiens (Human), UniProt Q14191)
- Sequence (Q14191 500-946): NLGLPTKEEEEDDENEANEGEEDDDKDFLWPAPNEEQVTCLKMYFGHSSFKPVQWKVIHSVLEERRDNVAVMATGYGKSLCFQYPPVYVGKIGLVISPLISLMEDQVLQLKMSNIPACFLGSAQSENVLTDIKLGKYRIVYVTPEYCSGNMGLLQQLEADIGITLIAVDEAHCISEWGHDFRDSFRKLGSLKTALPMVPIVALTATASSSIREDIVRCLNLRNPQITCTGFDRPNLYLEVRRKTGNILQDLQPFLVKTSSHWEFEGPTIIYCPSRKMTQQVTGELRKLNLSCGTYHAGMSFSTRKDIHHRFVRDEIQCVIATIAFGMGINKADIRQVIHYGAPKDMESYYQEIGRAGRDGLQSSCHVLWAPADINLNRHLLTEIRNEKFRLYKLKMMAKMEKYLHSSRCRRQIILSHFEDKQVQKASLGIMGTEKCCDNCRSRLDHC
- protocol_text: WRN ATPase assay (ADP-Glo)
- Type: biochemical
- condition_notes: WRN enzymatic activity assay
pIC50: −log10 of the molar value.

Below, each entry is followed by its recorded pIC50 result.
compound | measured_parameter | measurement
CCNc1ccc(F)c(C(=O)NCC(=O)N2CCN(c3c(CC)n(CC(=O)Nc4ccc(C(F)(F)F)cc4Cl)c4nc(C5=CCOCC5)nn4c3=O)CC2)c1 | pIC50 | > 7.00
CCc1c(N2CCN(C(=O)C(F)N3C(=O)c4ccccc4C3=O)CC2)c(=O)n2nc(C3=CCOCC3)nc2n1CC(=O)Nc1ccc(C(F)(F)F)cc1Cl (stereo not drawn) | pIC50 | 6.00 to 7.00

Query: # query: pIC50 of entry CCc1c(N2CCN(C(=O)CNC(=O)c3cccc(=O)[nH]3)CC2)c(=O)n2nc(C3=CCOCC3)nc2n1CC(=O)Nc1ccc(C(F)(F)F)cc1Cl
Response: > 7.00

###

- test_system: WRN [UniPro: Q14191 (WRN_HUMAN), N500-C946] (Homo sapiens (Human), UniProt Q14191)
- protocol_text: WRN unwinding assay (FORKF DNA, fluorescence)
- Format: biochemical
- condition_notes: Table 14
pIC50: −log10 of the molar value.
measured_parameter: pIC50

compound | pIC50
CCc1c(N2CCN(C(=O)c3cnc4ccsc4c3O)CC2)c(=O)n2nc(C3=CCOCC3)nc2n1CC(=O)Nc1ccc(C(F)(F)F)cc1Cl | > 7.00

Query: # query: pIC50 of entry CCc1c(N2CCN(C(=O)CNC(=O)c3cc(F)cc(NC)c3)CC2)c(=O)n2nc(C3=CCOCC3)nc2n1CC(=O)Nc1ccc(C(F)(F)F)cc1Cl
Response: > 7.00

Query: # query: pIC50 of entry CCc1c(N2CCN(C(=O)c3cnn4cccc4c3O)CC2)c(=O)n2nc(C3=CCOCC3)nc2n1CC(=O)Nc1ccc(C(F)(F)F)cc1F
Response: > 7.00

Query: # query: pIC50 of entry CCc1c(N2CCN(C(=O)CNC(=O)N(C)Cc3ccccc3)CC2)c(=O)n2nc(C3=CCOCC3)nc2n1CC(=O)Nc1ccc(C(F)(F)F)cc1Cl
Response: > 7.00

###

- test_system: WRN [UniPro: Q14191 (WRN_HUMAN), N500-C946] (Homo sapiens (Human), UniProt Q14191)
- protocol_text: WRN unwinding assay (FORKF DNA, fluorescence)
- Format: biochemical
- condition_notes: Table 14
pIC50: −log10 of the molar value.
measured_parameter: pIC50

compound | measured_parameter | measurement
CCc1c(N2CCN(C(=O)CNC(=O)c3ccccc3F)CC2)c(=O)n2nc(C3=CCOCC3)nc2n1CC(=O)Nc1ccc(C(F)(F)F)cc1 | pIC50 | > 7.00
CCc1c(N2CCN(C(=O)c3sc4cnccc4c3O)CC2)c(=O)n2nc(C3=CCOCC3)nc2n1CC(=O)Nc1ccc(C(F)(F)F)cc1Cl | pIC50 | > 7.00

Now, please, on to the next compound.
Query: # query: pIC50 of entry CCc1c(N2CCN(C(=O)CNC(=O)c3cccc(O)c3F)CC2)c(=O)n2nc(N3CCOCC3)nc2n1CC(=O)Nc1ccc(C(F)(F)F)cc1F
Response: > 7.00

###

- test_system: WRN [UniPro: Q14191 (WRN_HUMAN), N500-C946] (Homo sapiens (Human))
- protocol_text: WRN unwinding assay (FORKF DNA, fluorescence)
- Type: biochemical
- condition_notes: Table 14
measured_parameter: IC50

Below, each entry is followed by its recorded IC50 result.
compound | measurement
CCc1c(N2CCN(C(=O)C(=O)Nc3cscn3)CC2)c(=O)n2nc(C3=CCOCC3)nc2n1CC(=O)Nc1ccc(C(F)(F)F)cc1Cl [Example 335] | < 100 nM
CCc1c(N2CCN(C(=O)c3cnc(C(F)(F)F)[nH]3)CC2)c(=O)n2nc(C3=CCOCC3)nc2n1CC(=O)Nc1ccc(Cl)cc1C(F)(F)F [Example 70] | 100 to 1000 nM
CCc1c(N2CCN(C(=O)/C=C/c3cnccc3O)CC2)c(=O)n2nc(C3=CCOCC3)nc2n1CC(=O)Nc1ccc(C(F)(F)F)cc1F [Example 328] | 100 to 1000 nM
CCc1c(N2CCN(C(=O)CNC(=O)CC3COC3)CC2)c(=O)n2nc(C3=CCOCC3)nc2n1CC(=O)Nc1ccc(C(F)(F)F)cc1Cl [Example 273] | < 100 nM

Query: # query: IC50 of entry CCc1c(N2CCN(C(=O)CNC(=O)c3cnon3)CC2)c(=O)n2nc(C3=CCOCC3)nc2n1CC(=O)Nc1ccc(C(F)(F)F)cc1Cl [Example 384]
Response: < 100 nM

Query: # query: IC50 of entry CCc1c(N2CCN(C(=O)C(=O)Nc3nccs3)CC2)c(=O)n2nc(N3Cc4ccncc4C3)nc2n1CC(=O)Nc1ccc(C(F)(F)F)cc1Cl [Example 259]
Response: < 100 nM

Query: # query: IC50 of entry CCc1c(N2CCN(C(=O)c3ncsc3N)CC2)c(=O)n2nc(C3=CCOCC3)nc2n1CC(=O)Nc1ccc(C(F)(F)F)cc1Cl [Example 32]
Response: < 100 nM

Query: # query: IC50 of entry CCc1c(N2CCN(C(=O)c3cnn4cncc4c3O)CC2)c(=O)n2nc(C3=CCOCC3)nc2n1CC(=O)Nc1ccc(C(F)(F)F)cc1Cl [Example 201]
Response: < 100 nM

Query: # query: IC50 of entry CCc1c(N2CCN(C(=O)c3nnc(C)[nH]c3=O)CC2)c(=O)n2nc(C3=CCOCC3)nc2n1CC(=O)Nc1ccc(C(F)(F)F)cc1Cl [Example 56]
Response: < 100 nM

Query: # query: IC50 of entry CCc1c(N2CCN(C(=O)CNc3ncnc4[nH]ccc34)CC2)c(=O)n2nc(C3=CCOCC3)nc2n1CC(=O)Nc1ccc(C(F)(F)F)cc1Cl [Example 363]
Response: > 1000 nM

Query: # query: IC50 of entry CCc1c(N2CCN(C(=O)CN)CC2)c(=O)n2nc(C3=CCOCC3)nc2n1CC(=O)Nc1ccc(C(F)(F)F)cc1Cl [Example 38]
Response: 100 to 1000 nM

Query: # query: IC50 of entry CCc1c(N2CCN(C(=O)CNC(=O)c3ccccc3F)CC2)c(=O)n2nc(C3=CCOCC3)nc2n1CC(=O)Nc1ccc(C)s1 [Example 153]
Response: < 100 nM

Query: # query: IC50 of entry CCc1c(N2CCN(C(=O)CNC(=O)c3cc(C#N)ccc3F)CC2)c(=O)n2nc(C3=CCOCC3)nc2n1CC(=O)Nc1ccc(C(F)(F)F)cc1Cl [Example 382]
Response: < 100 nM

Query: # query: IC50 of entry CCc1c(N2CCN(C(=O)CN(C)C(C)=O)CC2)c(=O)n2nc(C3=CCOCC3)nc2n1CC(=O)Nc1ccc(C(F)(F)F)cc1Cl [Example 323]
Response: 100 to 1000 nM

Query: # query: IC50 of entry CCc1c(N2CCN(C(=O)CNC(=O)c3ccccc3F)CC2)c(=O)n2nc(C3=CCOCC3)nc2n1CC(=O)Nc1sc(C)cc1Cl [Example 151]
Response: 100 to 1000 nM

Query: # query: IC50 of entry CCc1c(N2CCN(C(=O)CNC(=O)c3ccccc3N3CCOCC3)CC2)c(=O)n2nc(N3CCOCC3)nc2n1CC(=O)Nc1ccc(C(F)(F)F)cc1Cl [Example 247]
Response: 100 to 1000 nM

###

Measured pIC50, listed per entry.
- test_system: WRN [UniPro: Q14191 (WRN_HUMAN), N500-C946] (Homo sapiens (Human), UniProt Q14191)
- protocol_text: WRN unwinding assay (FORKF DNA, fluorescence)
- Format: biochemical
- condition_notes: Table 14
pIC50: −log10 of the molar value.

compound | pIC50
CCc1c(N2CCN(C(=O)c3n[nH]c(=O)n(C)c3=O)CC2)c(=O)n2nc(C3=CCOCC3)nc2n1CC(=O)Nc1ccc(Cl)cc1C(F)(F)F | > 7.00

Query: For WRN [UniPro: Q14191 (WRN_HUMAN), N500-C946] (Homo sapiens (Human), UniProt Q14191), provide pIC50 of CCc1c(N2CCN(C(=O)CNC(=O)Nc3cc(F)ccc3F)CC2)c(=O)n2nc(C3=CCOCC3)nc2n1CC(=O)Nc1ccc(C(F)(F)F)cc1Cl please.
Response: > 7.00

Query: For WRN [UniPro: Q14191 (WRN_HUMAN), N500-C946] (Homo sapiens (Human), UniProt Q14191), provide pIC50 of CCc1c(N2CCN(C(=O)CNC(=O)c3ccno3)CC2)c(=O)n2nc(C3=CCOCC3)nc2n1CC(=O)Nc1ccc(C(F)(F)F)cc1F please.
Response: > 7.00

Query: For WRN [UniPro: Q14191 (WRN_HUMAN), N500-C946] (Homo sapiens (Human), UniProt Q14191), provide pIC50 of CCc1c(N2CCC3(CCN(C(=O)CNC(=O)c4ccccc4)C3)C2)c(=O)n2nc(C3=CCOCC3)nc2n1CC(=O)Nc1ccc(C(F)(F)F)cc1Cl (centres unmarked) please.
Response: < 6.00

Query: For WRN [UniPro: Q14191 (WRN_HUMAN), N500-C946] (Homo sapiens (Human), UniProt Q14191), provide pIC50 of CCc1c(N2CCN(C(=O)CNC(=O)c3ccccc3F)CC2)c(=O)n2nc(C3=CCOCC3)nc2n1CC(=O)Nc1sc(C)cc1Br please.
Response: > 7.00
